B1: CPEB3 Ribozyme (parent)
chain: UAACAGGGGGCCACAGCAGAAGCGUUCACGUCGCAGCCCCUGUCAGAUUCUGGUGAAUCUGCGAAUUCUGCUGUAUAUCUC

variants of: B1; assay: self-cleavage, relative activity (ratio to wild type); higher = more cleavage; in vitro, sequencing
Categorized via self-cleavage: low value (below 0.2), medium value (0.2 to below 0.5), high value (0.5 or more)

q: Band for A3G C71A ?
a: medium value

q: How about C17G A18G ?
a: low value

q: Also need A47C C59U , thanks.
a: low value

q: What do you have for U51G C62U ?
a: medium value

q: Item: A18G U31A
a: medium value

q: Entry A3G A47G please
a: high value

q: What about U31G U74G ?
a: high value

q: A45G U78G ?
a: high value

q: Another variant to look at: A47C U51A
a: medium value
